Target: MC1-R (B-16 mouse melanoma cells) (Mus musculus, UniProt Q01727)
Construct: B-16 mouse melanoma cells (containing MC1-R); endogenous in cells; host or cells: B-16 mouse melanoma cells
Sequence (Q01727 whole entry): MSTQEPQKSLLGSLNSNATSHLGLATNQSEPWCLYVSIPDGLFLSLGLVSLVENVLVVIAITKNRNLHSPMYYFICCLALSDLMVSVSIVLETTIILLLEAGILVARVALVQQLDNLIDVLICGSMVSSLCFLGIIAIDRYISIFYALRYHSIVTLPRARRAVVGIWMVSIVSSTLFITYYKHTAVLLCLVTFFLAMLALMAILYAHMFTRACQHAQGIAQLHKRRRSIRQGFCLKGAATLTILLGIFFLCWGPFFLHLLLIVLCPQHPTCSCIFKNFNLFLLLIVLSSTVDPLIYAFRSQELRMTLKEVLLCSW
Test: cAMP assay for agonist/antagonist status, MC1-R
Type: cell-based
PARAMETER MEASURED: agonist/antagonist status as to MC1-R

- SMILES STR: "NCCCC[C@H]1C(=O)N(CCc2ccc3ccccc3c2)CCN1C(=O)[C@@H](Cc1ccc(Cl)cc1Cl)NC(=O)c1ccc(Oc2ccccc2)cc1"
  MEASUREMENT TARGET: "MC1-R (B-16 mouse melanoma cells) (Mus musculus, UniProt Q01727)"
  PARAMETER MEASURED: "agonist/antagonist status as to MC1-R"
  RESULT: "antagonist"
- SMILES STR: "NCCCC[C@H]1C(=O)N(CCc2ccc3ccccc3c2)CCN1C(=O)[C@@H](Cc1ccc(Cl)cc1Cl)NC(=O)c1cccc(Oc2ccccc2)c1"
  MEASUREMENT TARGET: "MC1-R (B-16 mouse melanoma cells) (Mus musculus, UniProt Q01727)"
  PARAMETER MEASURED: "agonist/antagonist status as to MC1-R"
  RESULT: "antagonist"

###

Target: MC1-R (B-16 mouse melanoma cells) (Mus musculus, UniProt Q01727)
Construct: B-16 mouse melanoma cells (containing MC1-R); endogenous in cells; host or cells: B-16 mouse melanoma cells
Assay: cAMP assay for agonist/antagonist status, MC1-R
Assay type: cell-based
Non-standard residues stand in square brackets, D forms with d. Residues, ends and D or L forms follow the SMILES beside them. *: point of attachment. Hyp = O=C(O)[C@@H]1C[C@@H](O)CN1; Nle = CCCC[C@H](N)C(=O)O; NH(CH2)3NH2 = NCCCN*; Bn = c1ccc(C*)cc1

- MOLECULE: "N=C(N)NCCC[C@H]1C(=O)N2C(CC[C@@H]2COc2ccc3ccccc3c2)N1C(=O)[C@@H](Cc1ccc(Cl)cc1Cl)NC(=O)[C@@H](N)COCc1ccccc1 (some centres unmarked) [Example 114]"
  agonist/antagonist status as to MC1-R: "agonist"
- MOLECULE: "NCCCC[C@H]1C(=O)N(CCc2ccc3ccccc3c2)CCN1C(=O)[C@@H](Cc1ccc(Cl)cc1Cl)NC(=O)C/C=C/c1ccccc1 [Example 33]"
  agonist/antagonist status as to MC1-R: "antagonist"
- MOLECULE: "N=C(N)NCCC[C@H]1C(=O)N(CCc2ccc3ccccc3c2)CCN1C(=O)[C@H](N)Cc1ccc(Cl)cc1Cl [Example 51]"
  agonist/antagonist status as to MC1-R: "antagonist"
- MOLECULE: "NC(=O)NCCC[C@H]1C(=O)N(CCc2ccc3ccccc3c2)CCN1C(=O)[C@@H](Cc1ccc(Cl)cc1Cl)NC(=O)[C@@H](N)COCc1ccccc1 [Example 44]"
  agonist/antagonist status as to MC1-R: "agonist"
- MOLECULE: "CCCC[C@H](NC(C)=O)C(=O)N[C@@H](C)C(=O)N[C@@H](Cc1cnc[nH]1)C(=O)N[C@H](Cc1ccccc1)C(=O)N1C[C@H](OCc2ccccc2)C[C@H]1C(=O)NCCCN [Example 133] (Ac-[Nle]AH[dF][Hyp](Bn)-{NH(CH2)3NH2})"
  agonist/antagonist status as to MC1-R: "agonist"

###

This section presents molecules with their documented Inhibition at 1 μM MC1-R values.
Molecular target: MC1-R (B-16 mouse melanoma cells) (Mus musculus)
Construct: B-16 mouse melanoma cells (containing MC1-R); endogenous in cells; host or cells: B-16 mouse melanoma cells
Assay: Competitive inhibition binding assay, 125I-NDP-α-MSH, MC1-R
Details: 1 μM compound; inhibition of 125I-NDP-α-MSH binding; mean of triplicates; results less than 0% reported as 0%

- MOLECULE: "NCCCNC(=O)[C@@H]1C[C@@H](OCc2ccccc2)CN1C(=O)[C@@H](Cc1ccccc1)NC(=O)[C@@H](N)Cc1ccc(-c2ccccc2)cc1"
  Inhibition at 1 μM MC1-R: "11%"
- MOLECULE: "N=C(N)NCCC[C@H]1C(=O)N(CCc2c[nH]c3ccccc23)CCN1C(=O)[C@H](N)Cc1ccc(Cl)cc1Cl"
  Inhibition at 1 μM MC1-R: "7%"
- MOLECULE: "NCCCNC(=O)[C@@H]1C[C@@H](OCc2ccccc2)CN1C(=O)[C@@H](Cc1ccccc1)NC(=O)[C@H](Cc1cnc[nH]1)NC(=O)c1ccccc1"
  Inhibition at 1 μM MC1-R: "78%"
- MOLECULE: "NCCCC[C@H]1C(=O)N(CCc2ccc3ccccc3c2)CCN1C(=O)[C@H](N)Cc1ccc(Cl)cc1Cl"
  Inhibition at 1 μM MC1-R: "9%"
- MOLECULE: "NCCCNC(=O)C1CC(OCc2ccccc2)CN1C(=O)C(Cc1ccccc1)NC(=O)C1CCC(=O)N1C(=O)OCc1ccccc1 (stereo not drawn)"
  Inhibition at 1 μM MC1-R: "2%"
- MOLECULE: "NCCCC[C@H]1C(=O)N(CCOc2ccc3ccccc3c2)CCN1C(=O)[C@@H](Cc1ccc(Cl)cc1)NC(=O)[C@@H]1Cc2ccccc2CN1"
  Inhibition at 1 μM MC1-R: "88%"
